Molecular target: CRBN/DDB1 complex (Homo sapiens, UniProt Q96SW2)
Construct: made in house
Sequence (Q96SW2 40-442 limits assumed, species assumed, one chain of several): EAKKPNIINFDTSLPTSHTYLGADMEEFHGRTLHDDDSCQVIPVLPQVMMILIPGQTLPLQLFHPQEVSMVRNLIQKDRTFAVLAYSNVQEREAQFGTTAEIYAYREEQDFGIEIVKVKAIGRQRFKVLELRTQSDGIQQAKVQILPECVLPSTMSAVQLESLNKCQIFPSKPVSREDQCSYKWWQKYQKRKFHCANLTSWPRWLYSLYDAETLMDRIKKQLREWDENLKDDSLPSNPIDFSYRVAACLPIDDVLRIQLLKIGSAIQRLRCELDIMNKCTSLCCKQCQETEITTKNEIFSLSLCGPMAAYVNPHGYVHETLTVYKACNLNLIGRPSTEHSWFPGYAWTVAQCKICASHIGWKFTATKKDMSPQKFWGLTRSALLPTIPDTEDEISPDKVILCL
Test: R2 values of fragment hits at two ligand concentrations (preliminary ranking)
Assay type: binding
Conditions: R2 at 50 μM minus R2 at 200 μM, 2 μM CRBN/DDB1 complex
measured_endpoint: average R2, differences

Challenge: Could you tell me which average R2, differences is on file for Nc1ccc(C(=O)NCC2COc3ccccc3O2)cc1 (stereo not shown) ?
Response given: 0.5

Challenge: Now this one: O=c1ccn(Cc2ccccc2)c(=O)[nH]1
Response given: 2.2

Challenge: Now this one: COc1cc2c(cc1OC)C(c1cccc(O)c1)CC(=O)N2 (stereo not shown)
Response given: 0.5

Challenge: Param item: CCOc1cccc(C2CC(=O)NC3=C2C(=O)CCC3)c1 (stereo not shown)
Response given: 0.1

Challenge: Can you handle CNC(=O)c1nc(-c2ccccc2)n(-c2ccccc2)n1 next?
Response given: 0.1

Challenge: Follow-up entry: CCOc1ccc(C2CNC(=O)C2)cc1 (stereo not shown)
Response given: 1.2

Challenge: Moving on to the next molecule: CC(=O)N1CCN(S(=O)(=O)c2ccc(C(C)C)cc2)CC1
Response given: 0.1

Challenge: # iterate: CC(=O)Nc1cc2c(cc1C(=O)C(C)C)OCCO2
Response given: 1.2

(A) O=CN1CCN(Cc2cccc(Cl)c2)CC1
(B) COC(=O)c1ccc2c(c1)NC(=O)CO2
Challenge: Choose between A and B : whose measured average R2, differences value is numerically larger? State the label of the item chosen.
Response given: B
